biological target: DRB1*1501 (Homo sapiens, UniProt P01903+P01911); construct: made in house; host or cells: EBV-transformed homozygous human B cell lines, transfected fibroblasts or single-allele 721.221 transfectants; assay: biochemical; assay type: binding; settings: read-out: IC50 nM to purified HLA DRB1*1501
test.readout: log10 IC50 (log10 of the value in nM)
Heads up: the numbers are on a log10 scale; they represent IC50 in nM.

Task: May I ask what log10 IC50 has been recorded for `CC(C)C[C@H](NC(=O)[C@H](C)NC(=O)CNC(=O)[C@H](CCC(N)=O)NC(=O)[C@@H](NC(=O)[C@H](CC(C)C)NC(=O)[C@H](Cc1ccccc1)NC(=O)[C@H](Cc1ccccc1)NC(=O)[C@@H](NC(=O)[C@@H](N)CCCNC(=N)N)[C@@H](C)O)[C@@H](C)O)C(=O)N[C@@H](CC(C)C)C(=O)N[C@@H](CC(N)=O)C(=O)N[C@@H](CC(=O)O)C(=O)N[C@@H](CCCCN)C(=O)N[C@@H](Cc1c[nH]cn1)C(=O)N[C@@H](CO)C(=O)O` ?
Output: 2.90

Task: Record request: log10 IC50 value, item `CC[C@H](C)[C@H](NC(=O)[C@H](CC(C)C)NC(=O)[C@H](Cc1ccccc1)NC(=O)CNC(=O)[C@H](CCCNC(=N)N)NC(=O)[C@H](CC(C)C)NC(=O)[C@@H](NC(=O)[C@H](C)NC(=O)[C@H](CO)NC(=O)[C@@H](N)CCC(=O)O)C(C)C)C(=O)N[C@@H](CC(C)C)C(=O)NCC(=O)N[C@@H](CCCCN)C(=O)N[C@@H](CCC(=O)O)C(=O)N[C@@H](CC(=O)O)C(=O)O`
Output: 1.59

Task: Look up log10 IC50: `CC[C@H](C)[C@H](NC(=O)[C@H](CO)NC(=O)[C@H](CCC(N)=O)NC(=O)[C@H](CCC(=O)O)NC(=O)[C@H](CC(=O)O)NC(=O)[C@H](CCCNC(=N)N)NC(=O)CNC(=O)[C@H](CO)NC(=O)[C@@H](NC(=O)[C@@H](NC(=O)[C@H](CC(C)C)NC(=O)[C@H](CCC(N)=O)NC(=O)[C@@H](NC(=O)[C@@H](N)CC(C)C)[C@@H](C)CC)[C@@H](C)CC)C(C)C)C(=O)N[C@@H](C)C(=O)O`
Output: 2.62

Task: Requested field: log10 IC50. Item: `CC(C)C[C@H](NC(=O)[C@H](CCCCN)NC(=O)[C@@H](NC(=O)[C@H](CO)NC(=O)[C@H](C)NC(=O)[C@@H](NC(=O)[C@H](C)NC(=O)[C@H](CCCCN)NC(=O)[C@H](CCC(=O)O)NC(=O)[C@@H](NC(=O)[C@H](CC(C)C)NC(=O)[C@H](Cc1ccccc1)NC(=O)[C@H](CC(N)=O)NC(=O)[C@@H](NC(=O)[C@@H](N)CC(N)=O)[C@@H](C)O)[C@@H](C)O)C(C)C)C(C)C)C(=O)N[C@@H](C)C(=O)O`
Output: 1.67

Task: For the molecule shown here, `CC[C@H](C)[C@H](NC(=O)[C@H](CC(C)C)NC(=O)[C@H](Cc1c[nH]c2ccccc12)NC(=O)[C@@H](NC(=O)[C@@H](N)C(C)C)C(C)C)C(=O)N[C@@H](CCCCN)C(=O)N[C@@H](CCCCN)C(=O)N[C@@H](CC(N)=O)C(=O)N[C@@H](CO)C(=O)N[C@H](C(=O)N[C@@H](Cc1ccc(O)cc1)C(=O)N1CCC[C@H]1C(=O)N[C@H](C(=O)N[C@H](C(=O)N[C@@H](CCCCN)C(=O)N[C@@H](CCCNC(=N)N)C(=O)O)[C@@H](C)CC)[C@@H](C)O)[C@@H](C)O` , give the reported log10 IC50.
Output: 2.00

Task: Could you share which log10 IC50 value was measured for `CC[C@H](C)[C@H](NC(=O)[C@@H](N)Cc1ccc(O)cc1)C(=O)N[C@@H](CCC(N)=O)C(=O)N[C@@H](CCSC)C(=O)N[C@@H](CS)C(=O)N[C@H](C(=O)N[C@@H](CCC(=O)O)C(=O)N[C@@H](CC(C)C)C(=O)N[C@@H](CCCCN)C(=O)N[C@@H](CC(C)C)C(=O)N[C@@H](CO)C(=O)N[C@@H](CC(=O)O)C(=O)N[C@@H](Cc1ccc(O)cc1)C(=O)N[C@@H](CCC(=O)O)C(=O)NCC(=O)O)[C@@H](C)O` ?
Output: 2.77

Task: Any idea what its log10 IC50 is? The molecule is `CC(C)C[C@H](NC(=O)[C@H](C)NC(=O)CNC(=O)[C@H](CCC(N)=O)NC(=O)[C@@H](N)[C@@H](C)O)C(=O)N[C@@H](CC(C)C)C(=O)N[C@@H](CC(N)=O)C(=O)N[C@@H](CC(=O)O)C(=O)N[C@@H](CCCCN)C(=O)N[C@@H](Cc1c[nH]cn1)C(=O)N[C@@H](CO)C(=O)N[C@@H](CC(N)=O)C(=O)NCC(=O)N[C@H](C(=O)N[C@H](C(=O)N[C@@H](CCCCN)C(=O)N[C@@H](CC(=O)O)C(=O)O)C(C)C)[C@@H](C)O`
Output: 2.91

Task: Which measured log10 IC50 value corresponds to `CSCC[C@H](NC(=O)[C@H](CCCNC(=N)N)NC(=O)[C@H](CCSC)NC(=O)[C@@H](N)C(C)C)C(=O)NCC(=O)N[C@@H](CC(=O)O)C(=O)N[C@@H](CC(C)C)C(=O)N[C@@H](Cc1c[nH]cn1)C(=O)N[C@@H](CO)C(=O)N[C@@H](CC(C)C)C(=O)N[C@@H](CCC(N)=O)C(=O)N[C@@H](CC(N)=O)C(=O)N[C@@H](CCCNC(=N)N)C(=O)N[C@@H](CC(N)=O)C(=O)NCC(=O)O` ?
Output: 2.57
